Target: T1, Growth Hormone Receptor (GHR) immobilized on a high binding plate (UniProt P10912 19-264, limits assumed)
T1 sequence (looked up): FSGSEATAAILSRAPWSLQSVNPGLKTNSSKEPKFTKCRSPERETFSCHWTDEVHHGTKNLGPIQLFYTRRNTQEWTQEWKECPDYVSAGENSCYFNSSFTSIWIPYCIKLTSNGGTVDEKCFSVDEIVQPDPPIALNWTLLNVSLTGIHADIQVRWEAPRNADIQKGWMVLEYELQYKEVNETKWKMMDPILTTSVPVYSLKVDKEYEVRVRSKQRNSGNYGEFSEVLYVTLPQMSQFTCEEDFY
Test: competition ELISA: Fab titrated on plate-bound GHR preincubated with 200 nM GH (the legend of 6A names B2036), anti-human Fab-HRP
Property: EC50; scope: individual binders
Measurement Type: EC50 (nM)

* GHR3 Fab (Fab, V domains shown) VH: EVQLVESGGGLVQPGGSLRLSCAASGFNVSYYSIHWVRQAPGKGLEWVAYISPSYGSTSYADSVKGRFTISADTSKNTAYLQMNSLRAEDTAVYYCARGYWGGGYWPYHAFDYWGQGTLVTVSS VL: DIQMTQSPSSLSASVGDRVTITCRASQSVSSAVAWYQQKPGKAPKLLIYSASSLYSGVPSRFSGSRSGTDFTLTISSLQPEDFATYYCQQYYTSLLTFGQGTKVEIKR | 26
* GHR_TS40 Fab (Fab, V domains shown) VH: EVQLVESGGGLVQPGGSLRLSCAASGFNVSYYYIHWVRQAPGKGLEWVASIYPSSGYTSYADSVKGRFTISADTSKNTAYLQMNSLRAEDTAVYYCARYYWPASYWSGYSALDYWGQGTLVTVSS VL: DIQMTQSPSSLSASVGDRVTITCRASQSVSSAVAWYQQKPGKAPKLLIYSASSLYSGVPSRFSGSRSGTDFTLTISSLQPEDFATYYCQQYPWGLITFGQGTKVEIKR | 132
* GHR_TS10 Fab (Fab, V domains shown) VH: EVQLVESGGGLVQPGGSLRLSCAASGFNFSSSYIHWVRQAPGKGLEWVAYISPSSGYTSYADSVKGRFTISADTSKNTAYLQMNSLRAEDTAVYYCARQYYGGWYGFGMDYWGQGTLVTVSS VL: DIQMTQSPSSLSASVGDRVTITCRASQSVSSAVAWYQQKPGKAPKLLIYSASSLYSGVPSRFSGSRSGTDFTLTISSLQPEDFATYYCQQWHSYLITFGQGTKVEIKR | 3.5
* GHR_TS23 Fab (Fab, V domains shown) VH: EVQLVESGGGLVQPGGSLRLSCAASGFNFYYSSIHWVRQAPGKGLEWVASIYSYSGSTSYADSVKGRFTISADTSKNTAYLQMNSLRAEDTAVYYCARQYWYYGGYFYYGIDYWGQGTLVTVSS VL: DIQMTQSPSSLSASVGDRVTITCRASQSVSSAVAWYQQKPGKAPKLLIYSASSLYSGVPSRFSGSRSGTDFTLTISSLQPEDFATYYCQQYWSTLITFGQGTKVEIKR | 3.5
